molecular target: T1, ANTIBODY EXPRESSION CONTROL; assay: SPR Biacore, expression control
T1 construct: also called mouse anti-canine antibody (capture reagent of the expression control ELISA)
observable: kon (M⁻¹ s⁻¹)
Number only, in M⁻¹ s⁻¹; omit the unit.

Some binders with recorded kon:
binder="Mu_19F07_VH (SEQ ID NO: 47)_Y59A (antibody, V domains shown) VH: EVKLVESEGGLVQPGSSMKLSCTASGFTFSDYYMAWVRQVPEKGLEWVANINYDGSSTAYLDSLKSRFIISRDNAKNILYLQMSSLKSEDTATYYCARGLTWDFDVWGTGTTVTVSS VL: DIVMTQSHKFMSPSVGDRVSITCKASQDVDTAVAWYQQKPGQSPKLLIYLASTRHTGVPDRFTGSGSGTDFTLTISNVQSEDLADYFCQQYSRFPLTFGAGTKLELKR" observable=kon unitdescriptor="M⁻¹ s⁻¹" assayresult=324000
binder="Mu_10F07_VH (SEQ ID NO: 39)_I101A (antibody, V domains shown) VH: DVKLVESGEGLVKPGGSLKLSCAASGFTFSSYAMSWVRQTPEKRLEWVTYISSGGDYFYYADTVKGRFTISRDNARNTLYLQMSSLKSEDTAMYYCTRDPATGTFAYWGQGTLVTVSA VL: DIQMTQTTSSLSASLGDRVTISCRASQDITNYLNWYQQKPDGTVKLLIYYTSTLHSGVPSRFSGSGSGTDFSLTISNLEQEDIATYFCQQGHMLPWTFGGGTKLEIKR" observable=kon unitdescriptor="M⁻¹ s⁻¹" assayresult=101000
binder="Mu_19F07_VH (SEQ ID NO: 47)_F104A (antibody, V domains shown) VH: EVKLVESEGGLVQPGSSMKLSCTASGFTFSDYYMAWVRQVPEKGLEWVANINYDGSSTYYLDSLKSRFIISRDNAKNILYLQMSSLKSEDTATYYCARGLTWDADVWGTGTTVTVSS VL: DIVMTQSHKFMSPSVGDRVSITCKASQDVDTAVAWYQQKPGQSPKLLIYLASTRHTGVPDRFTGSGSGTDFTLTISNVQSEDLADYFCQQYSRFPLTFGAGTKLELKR" observable=kon unitdescriptor="M⁻¹ s⁻¹" assayresult=326000
binder="Mu_09E09_VH (SEQ ID NO: 35)_Y57A (antibody, V domains shown) VH: DVKLVESGEGLVKPGGSLKLSCAASGFTFSSYAMSWVRQTPEKRLEWVAYISSGGDAIYYADTVKGRFTISRDNARNTLYLQMSSLKSEDTAMYYCTRDPITGTFAYWGQGTLVTVSA VL: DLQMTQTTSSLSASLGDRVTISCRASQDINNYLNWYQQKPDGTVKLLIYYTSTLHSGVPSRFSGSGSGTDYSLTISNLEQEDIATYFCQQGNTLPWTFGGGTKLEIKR" observable=kon unitdescriptor="M⁻¹ s⁻¹" assayresult=305000
binder="Mu_19F07_VL (SEQ ID NO: 49)_T53A (antibody, V domains shown) VH: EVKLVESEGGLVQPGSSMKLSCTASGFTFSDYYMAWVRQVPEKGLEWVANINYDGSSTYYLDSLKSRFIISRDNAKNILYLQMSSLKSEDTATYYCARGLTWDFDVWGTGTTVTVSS VL: DIVMTQSHKFMSPSVGDRVSITCKASQDVDTAVAWYQQKPGQSPKLLIYLASARHTGVPDRFTGSGSGTDFTLTISNVQSEDLADYFCQQYSRFPLTFGAGTKLELKR" observable=kon unitdescriptor="M⁻¹ s⁻¹" assayresult=305000
binder="mouse: canine 10F07 chimera (antibody, V domains shown, Mouse variable domains on canine IgG constant regions; also called 10F07 (Mouse:Canine); mouse:dog chimera 10F07) VH: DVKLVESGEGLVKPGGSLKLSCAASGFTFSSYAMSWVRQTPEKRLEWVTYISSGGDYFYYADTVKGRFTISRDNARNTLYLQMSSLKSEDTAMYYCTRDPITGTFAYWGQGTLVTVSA VL: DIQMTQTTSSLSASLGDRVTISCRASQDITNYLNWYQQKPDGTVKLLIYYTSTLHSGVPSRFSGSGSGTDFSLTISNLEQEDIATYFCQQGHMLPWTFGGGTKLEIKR" observable=kon unitdescriptor="M⁻¹ s⁻¹" assayresult=134000
binder="Mu_09E09_VL (SEQ ID NO: 37)_N92A (antibody, V domains shown) VH: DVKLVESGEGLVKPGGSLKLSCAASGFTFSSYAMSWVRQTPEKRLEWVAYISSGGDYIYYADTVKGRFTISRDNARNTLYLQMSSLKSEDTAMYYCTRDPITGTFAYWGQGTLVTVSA VL: DLQMTQTTSSLSASLGDRVTISCRASQDINNYLNWYQQKPDGTVKLLIYYTSTLHSGVPSRFSGSGSGTDYSLTISNLEQEDIATYFCQQGATLPWTFGGGTKLEIKR" observable=kon unitdescriptor="M⁻¹ s⁻¹" assayresult=296000
binder="mouse: canine 19F07 chimera (antibody, V domains shown, Mouse variable domains on canine IgG constant regions; also called 19F07 (Mouse:Canine); mouse:dog chimera 19F07) VH: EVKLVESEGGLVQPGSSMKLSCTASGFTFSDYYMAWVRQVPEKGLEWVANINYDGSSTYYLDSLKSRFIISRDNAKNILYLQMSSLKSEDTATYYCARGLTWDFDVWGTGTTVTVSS VL: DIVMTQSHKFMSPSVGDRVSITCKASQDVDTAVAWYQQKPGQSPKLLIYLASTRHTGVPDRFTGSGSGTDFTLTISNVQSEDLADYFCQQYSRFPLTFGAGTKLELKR" observable=kon unitdescriptor="M⁻¹ s⁻¹" assayresult=281000
binder="Mu_10F07_VL (SEQ ID NO: 41)_Y50A (antibody, V domains shown) VH: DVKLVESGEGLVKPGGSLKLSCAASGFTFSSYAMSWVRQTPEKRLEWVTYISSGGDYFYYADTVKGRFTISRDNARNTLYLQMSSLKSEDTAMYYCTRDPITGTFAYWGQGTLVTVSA VL: DIQMTQTTSSLSASLGDRVTISCRASQDITNYLNWYQQKPDGTVKLLIYATSTLHSGVPSRFSGSGSGTDFSLTISNLEQEDIATYFCQQGHMLPWTFGGGTKLEIKR" observable=kon unitdescriptor="M⁻¹ s⁻¹" assayresult=174000
binder="Mu_02D09_VL (SEQ ID NO: 33)_W94A (antibody, V domains shown) VH: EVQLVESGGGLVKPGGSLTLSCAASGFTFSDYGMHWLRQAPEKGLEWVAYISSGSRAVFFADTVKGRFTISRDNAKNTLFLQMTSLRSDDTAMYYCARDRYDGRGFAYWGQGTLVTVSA VL: DIVLTQSPATLSVTPGDSVSLSCRASQSISNNLHWYQQTSHESPRLLITYASQSISGIPSRFSGSGSGTDFTLSINSVETEDFGMYFCQQSNSAPLTFGAGTKLELKR" observable=kon unitdescriptor="M⁻¹ s⁻¹" assayresult=323000

# input for lookup
Entry under test: Mu_19F07_VH (SEQ ID NO: 47)_W102A (antibody, V domains shown) VH: EVKLVESEGGLVQPGSSMKLSCTASGFTFSDYYMAWVRQVPEKGLEWVANINYDGSSTYYLDSLKSRFIISRDNAKNILYLQMSSLKSEDTATYYCARGLTADFDVWGTGTTVTVSS VL: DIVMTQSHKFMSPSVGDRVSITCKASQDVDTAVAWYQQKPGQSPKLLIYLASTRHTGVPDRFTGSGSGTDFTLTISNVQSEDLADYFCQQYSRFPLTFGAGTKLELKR . Its kon was 312000
